assay.remarks: recombinant barcode read abundance after kanamycin selection (control-corrected) (log10(CPM+1)); higher = more efficient recombination; sequences stand for … in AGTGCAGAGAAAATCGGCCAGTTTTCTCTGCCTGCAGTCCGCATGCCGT…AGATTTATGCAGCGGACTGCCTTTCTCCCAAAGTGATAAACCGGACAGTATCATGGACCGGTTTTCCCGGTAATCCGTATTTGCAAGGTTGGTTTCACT; site = the 11-nt target;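 further: IS621 recombinase and bridge RNA in Escherichia coli cells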
The sequences listed here are annotated with their recombinant barcode read abundance (log10).
property.label: recombinant barcode read abundance (log10)

# construct.sequence, reported.result
records = [
    ("CTATGTGCTTGGGTTCTAACCTGTTGCAT (site CTATGTGCTAA)", 0.295),
    ("TGAGTTCCTTGGGTTCTAACCTGTTGCTT (site TGAGTGCCTAA)", 0.00865),
    ("TAGCATGCTTGGGTTCTAACCTGTTGCAC (site TAGCATGCTGT)", 0.978),
    ("GATAGGGCTTGGGTTCTAACCTGTTGCGG (site GATAGGGCTCC)", 2.34),
    ("GAGCTACCTTGGGTTCTAACCTGTTGCCT (site GAGCTACCTGG)", 0.172),
    ("CGGAATCCTTGGGTTCTAACCTGTTGCAT (site CGGAATCCTAC)", 0.841),
    ("GCTGGGTCTTGGGTTCTAACCTGTTGCCT (site GCTGGGTCTAG)", 0.814),
    ("GTTTGGTCTTGGGTTCTAACCTGTTGCCT (site GTTTGTTCTAG)", 0.0972),
    ("TGTTCCTCTTGGGTTCTAACCTGTTGCCT (site TGTCCCTCTAG)", 0.142),
    ("CGAACTACTTGGGTTCTAACCTGTTGCTT (site CGAACTACTAG)", 0.202),
    ("TCTAGAGCTTGGGTTCTAACCTGTTGCGG (site TCTAGAGCTCC)", 1.61),
    ("GCACTGCCTTGGGTTCTAACCTGTTGCCT (site GCACTGCCTAG)", 1.31),
    ("ACGACTTCTTGGGTTCTAACCTGTTGCCT (site ACGACTCCTAG)", 0.167),
    ("CAATCCTCTTGGGTTCTAACCTGTTGCTA (site TCTGTAACTAG)", 0.0981),
    ("ACAGGAGCTTGGGTTCTAACCTGTTGCGG (site ACAGGAGCTCC)", 2.61),
    ("GGCCGTCCTTGGGTTCTAACCTGTTGCAG (site ACCCGTCCTCT)", 0.184),
    ("ACCACGCCTTGGGTTCTAACCTGTTGCCT (site ATCACGCCTAG)", 0.0537),
    ("GGACGATCTTGGGTTCTAACCTGTTGCCT (site GGACCATCTAG)", 0.0164),
    ("GAGCAGTCTTGGGTTCTAACCTGTTGCCT (site GAGAAGTCTAG)", 0),
    ("TGTATAGCTTGGGTTCTAACCTGTTGCTA (site TGTATAGCTTA)", 0.0299),
    ("AGGCGCCCTTGGGTTCTAACCTGTTGCAT (site AGGCGCCCTAT)", 1.29),
    ("CTAAGAACTTGGGTTCTAACCTGTTGCGT (site CTAAGAACTAA)", 0.0418),
    ("ACGGCTACTTGGGTTCTAACCTGTTGCTT (site GGTTAGTCTCG)", 0.0618),
    ("CGCTCCTCTTGGGTTCTAACCTGTTGCAT (site GCTCGACCTCA)", 0.177),
    ("CGAGGACCTTGGGTTCTAACCTGTTGCCT (site CCAGGACCTAG)", 0.729),
    ("AGTTAGTCTTGGGTTCTAACCTGTTGCGG (site AGTTAGTCTCC)", 1.43),
    ("AGGAACACTTGGGTTCTAACCTGTTGCCT (site AGAAACACTAG)", 1.36),
    ("GCGACATCTTGGGTTCTAACCTGTTGCCT (site TAAGATGCTCC)", 0.162),
    ("TTGTGAGCTTGGGTTCTAACCTGTTGCGC (site AGTCACACTCT)", 0.182),
    ("GGTCATTCTTGGGTTCTAACCTGTTGCCT (site GGTCATCCTAG)", 0.157),
    ("TACCAGTCTTGGGTTCTAACCTGTTGCTT (site TACCGGTCTAA)", 0.293),
    ("TAGTATCCTTGGGTTCTAACCTGTTGCCT (site TAGTATCCTAG)", 1.04),
    ("TACTAAGCTTGGGTTCTAACCTGTTGCAT (site TACTAAGCTAT)", 0.523),
]
